The measurements presented in this section are drawn from paper PMC5540273.

# Tested on: PIP5K1C
# cond: concentration: 1 μM,replicates: in singlicate; n = 1;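 note: KINOMEscan kinase panel screen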
Catalogue of %Inh readings, one per entry.
quantity name: %Inh (%)

{"compound": "Cc1ccc(Nc2ccnc(Nc3ccc4c(c3)CS(=O)(=O)C4)n2)cc1O.Cl [GW579362]", "quantity name": "%Inh", "assay value": 39}
{"compound": "NC(=O)Nc1sc(-c2ccc(F)cc2)cc1C(N)=O [GW789449]", "quantity name": "%Inh", "assay value": 65}
{"compound": "COC(=O)Nc1nc2cc(Oc3ccc(NC(=O)Nc4cc(C(F)(F)F)ccc4Cl)cc3)ccc2[nH]1.Cl [GW697465]", "quantity name": "%Inh", "assay value": 63}
{"compound": "CN(c1cccc(CNc2nc(Nc3ccc4c(c3)CC(=O)N4)ncc2C(F)(F)F)c1)S(C)(=O)=O", "quantity name": "%Inh", "assay value": 45}

---

# System: TYK2(JH2domain-pseudokinase)
# cond: concentration: 1 μM,replicates: in singlicate; n = 1
quantity name: %Inh (%)

{"compound": "Cl.Nc1n[nH]c2cc(-c3ccccn3)ccc12", "output unit": "%", "assay value": 0}
{"compound": "COc1cc(Nc2nccc(N3CCC(NC(=O)c4cccc(C#N)c4)C3)n2)cc(OC)c1OC (stereo not drawn)", "output unit": "%", "assay value": 55}
{"compound": "Cc1ccc(CC(=O)N2CCc3cc(-c4cn(C)c5ncnc(N)c45)ccc32)cc1", "output unit": "%", "assay value": 17}
{"compound": "Cc1ccc(Nc2ccnc(Nc3ccc4c(c3)CS(=O)(=O)C4)n2)cc1O.Cl", "output unit": "%", "assay value": 99.5}
{"compound": "O=C(NCC1CC1)c1ccc(-c2cc(C(=O)NC3CC3)ccc2F)cc1", "output unit": "%", "assay value": 2}
{"compound": "Cn1ccc2ncnc(Oc3ccc(NC(=O)Nc4ccnc(C(F)(F)F)c4)c(Cl)c3)c21", "output unit": "%", "assay value": 0}
{"compound": "C[C@@H](Oc1cc(-n2cnc3ccc(-c4ccncc4)cc32)sc1C(N)=O)c1ccccc1Cl", "output unit": "%", "assay value": 42}
{"compound": "Cn1cc(-c2cccc3c(N)c(C(N)=O)nnc23)cn1", "output unit": "%", "assay value": 80}
{"compound": "CN(c1cccc(CNc2nc(Nc3ccc4c(c3)CC(=O)N4)ncc2C(F)(F)F)c1)S(C)(=O)=O", "output unit": "%", "assay value": 0}
{"compound": "Cc1ccn2nc(-c3ccc(F)cc3)c(-c3ccncc3)c2c1.Cl", "output unit": "%", "assay value": 25}
{"compound": "CCOC(=O)N1CCC(n2cnc(-c3ccc(F)cc3)c2-c2ccnc(N)n2)CC1", "output unit": "%", "assay value": 67}
{"compound": "COc1ccc(Nc2nccc(N3CCC(NC(=O)c4cccc(C#N)c4)C3)n2)cc1 (stereo not drawn)", "output unit": "%", "assay value": 18}
{"compound": "O=c1[nH]cc(-c2ccc(O)cc2)c2sc(-c3ccncc3)cc12", "output unit": "%", "assay value": 16}
{"compound": "CC(C(=O)NC1CCN(c2ccnc(Nc3ccc(F)cc3)n2)C1)c1ccc(Cl)cc1 (stereo not drawn)", "output unit": "%", "assay value": 0}
{"compound": "COC(=O)c1cccc(NC(=O)NC2CCN(c3ccnc(Nc4cc(OC)c(OC)c(OC)c4)n3)C2)c1 (stereo not drawn)", "output unit": "%", "assay value": 18}
{"compound": "COC(=O)c1cccc(NC(=O)NC2CCN(c3ccnc(NCc4ccc(F)cc4)n3)CC2)c1", "output unit": "%", "assay value": 5}
{"compound": "c1ccc(Oc2ccc(Nc3ccnc4ccc(-c5ccccn5)cc34)cc2)cc1", "output unit": "%", "assay value": 15}
{"compound": "Nc1nccc(-c2ccc3c(N)n[nH]c3c2)n1", "output unit": "%", "assay value": 52}
